System: Zika virus NS2B-NS3 protease
Test: Primary screen GU AMC qHTS for Zika virus inhibitors (AID 1347154); note: nearly all actives have a fitted effect of over 70% in size
Conditions: Zika NS2B-NS3 unlinked protease, AMC fluorogenic substrate; series mostly up to 54.1 µM
Results filed as inconclusive are left out. The source made the active and inactive calls. Calls come from the whole dose curve; as a rule, active = well fitted inhibition curve with a large enough effect; inconclusive = small, poorly fitted or top-dose-only effect; inactive = flat fitted curve, though single readings scatter.
MEASURE: outcome

Solved entries:
- MOLECULE: "CC(=O)c1cc2ccccc2s1"
  outcome: "inactive"
- MOLECULE: "CC(CC(C#N)(c1ccccc1)C(C)C)N(C)C (stereo unspecified)"
  outcome: "inactive"
- MOLECULE: "COc1cc(/C=C/C(N)=O)cc(OC)c1OC"
  outcome: "inactive"
- MOLECULE: "CCOc1ncc(F)c(=O)[nH]1"
  outcome: "inactive"

The record that follows has no outcome shown yet.
CN1CCC(N(Cc2cccs2)c2ccccc2)CC1 has a reported outcome of inactive

* * *

Assay: Primary qHTS for inhibitors of nuclear receptor binding SET domain protein 2 (NSD2) in an isogenic RCH-ACV NSD2 p.E1099K mutant (9B) (AID 1645876); note: nearly all actives have a fitted effect of over 70% in size
Conditions: RCH-ACV (leukaemia line) NSD2 E1099K (9B) viability, CellTiter-Glo, 72 h; series mostly up to 44.9 µM
Results filed as inconclusive are left out. Active and inactive are the calls of the source. Calls follow the shape of the dose curve; as a rule, active = well fitted inhibition curve with a large enough effect; inconclusive = small, poorly fitted or top-dose-only effect; inactive = flat fitted curve, though single readings scatter.
Write down the outcome that applies. Available outcomes: YES = active, NO = inactive

Worked examples, 5 molecules total:
- MOLECULE: "Oc1ccccc1-c1nnco1"
  CAT: "NO"
- MOLECULE: "CCOc1ncc(F)c(=O)[nH]1"
  CAT: "NO"
- MOLECULE: "c1ccc2c(c1)CCc1ccccc1N2"
  CAT: "NO"
- MOLECULE: "CC(C)NCCCC1(C(N)=O)c2ccccc2-c2ccccc21"
  CAT: "NO"
- MOLECULE: "NC(=O)NC1N=C([O][Al])NC1=O (stereo unspecified)"
  CAT: "NO"

## Input So what was the verdict on CCc1cccc2c(CCO)c[nH]c12 in this test?
## Output NO

## Input Give the logged outcome of this assay for the following molecule: CCOC(=O)c1ccc(OCCN2C[C@H](O)[C@@H](O)[C@H](O)[C@H]2CO)cc1
## Output NO

## Input Just curious, what result did Clc1ccc2c(c1)Nc1ccccc1S2 get here?
## Output NO

## Input In this assay, the call recorded for CCCCCCCCCCCC[N+](C)(C)Cc1ccccc1 was what?
## Output YES

## Input Recorded test call requested for CC(=O)/C=C/C=C1/C2CCC(C2)C1(C)C (stereo unspecified)
## Output NO

## Input So what was the verdict on Cc1ccc2c(Cl)cc(Cl)c(O)c2n1 in this test?
## Output NO

* * *

Test: qHTS of pediatric cancer cell lines to identify multiple opportunities for drug repurposing: Primary screen for Rh18 cells (AID 1347102); note: nearly all actives have a fitted effect of over 65% in size
Details: Rh18 rhabdomyosarcoma viability, CellTiter-Glo luminescence, 48 h; series mostly up to 46 µM
Results filed as inconclusive are left out. Activity calls are given as the source filed them. The call rests on the fitted dose curve; in most records, active means well fitted cell-killing curve with a large enough effect; inconclusive means small, poorly fitted or top-dose-only effect; inactive means flat fitted curve, though single readings scatter.
Choose one outcome from this list and give only that: TRUE = active, FALSE = inactive

- GIVEN_SMILES: "COc1c(N2C[C@@H]3CCCN[C@@H]3C2)c(F)cc2c(=O)c(C(=O)O)cn(C3CC3)c12"
  CAT: "FALSE"

## Input Identify the outcome logged in this assay for the compound shown: C[C@@H](C1=C(CCN(C)C)Cc2ccccc21)c1ccccn1
## Output FALSE

## Input What did this assay record as the result for CC(C)=CCNc1ncnc2c1ncn2[C@@H]1O[C@H](CO)[C@@H](O)[C@H]1O ?
## Output TRUE

## Input Test call for this compound, please: Cc1oc(=O)oc1COC(=O)[C@@H]1N2C(=O)[C@@H](NC(=O)[C@H](N)c3ccccc3)[C@H]2SC1(C)C
## Output FALSE

## Input Outcome? Cc1sccc1Br
## Output FALSE

## Input I would be grateful if you could indicate the recorded call for CCCCCC[C@@H](CCC)C(=O)O .
## Output FALSE

Hey, just so you know, these numbers are from PubChem BioAssay (NCATS).
